Origin of values: patent US20210269525A1

# TARGET_OR_TEST_SYSTEM: T1, human CD3e (T-cell surface glycoprotein CD3 epsilon chain) (human, UniProt P07766 23-207)
# T1 construct: Target of the anti-hCD3e antibodies on human PBMC, Jurkat cells and cells expressing human CD3e; on T cells it is part of the CD3/TCR complex; also called hCD3e; CD3e on human PBMC
# ASSAY_NOTES: flow cytometry, human PBMC, antibody 0.1 ug/mL, anti-human IgG Fc-Alexa Fluor647 (1:500), anti-hTcRβ-PerCP (1:30)
EXPERIMENTAL_ENDPOINT: upper left quadrant, percent of cells AF647+ / hTcRβ-PerCP- (%)
Expressed in %, but write only the number.

The following binders have reported results that may help.
{"columns": ["BINDER", "OBSERVED_MEASUREMENT"],
 "data": [
  ["10A4-H3K1-IgG1-LALA (antibody, V domains shown, Humanized; human IgG1 with LALA mutations; also called H3K1 (humanized 10A4)) VH: QVQLVQSGAEVKKPGASVKISCKASGYTFTSYYIHWVRQRPGQRLEFIGWIYPGNVNAKYNEKFKGRATLTTDKSASTAYMELSSLRSEDTAVYFCAIKGGNYDWGQGTLVTVSS VL: DVVMTQSPLSLPVTLGQPASISCQSSQSLLDSDGKTYLNWLQQRPGQSPRRLIYLVSKLGSGVPDRFSGSGSGTDFTLKISRVEAEDVGVYYCWQGTHFPRTFGGGTKVEIK", 10.7],
  ["10A4-H2K1-IgG1-LALA (antibody, V domains shown, Humanized; human IgG1 with LALA mutations; also called H2K1 (humanized 10A4)) VH: QVQLVQSGAEVKKPGASVKISCKASGYTFTSYYIHWVRQAPGQRLEFIGWIYPGNVNAKYNEKFKGRATITTDKSASTAYMELSSLRSEDTAVYYCAIKGGNYDWGQGTLVTVSS VL: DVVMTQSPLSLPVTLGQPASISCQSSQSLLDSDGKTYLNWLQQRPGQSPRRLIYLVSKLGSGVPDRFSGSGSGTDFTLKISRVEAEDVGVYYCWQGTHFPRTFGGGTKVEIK", 10.3]
]}

// switching to the query binder
Task: Look up upper left quadrant, percent of cells AF647+ / hTcRβ-PerCP- for this binder: 10A4-H3K2-IgG1-LALA (antibody, V domains shown, Humanized; human IgG1 with LALA mutations; also called H3K2 (humanized 10A4)) VH: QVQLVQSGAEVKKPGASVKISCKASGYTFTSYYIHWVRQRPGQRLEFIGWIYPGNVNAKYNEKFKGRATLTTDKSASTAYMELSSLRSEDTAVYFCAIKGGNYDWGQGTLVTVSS VL: DVVMTQSPLSLPVTLGQPASISCQSSQSLLDSDGKTYLNWLQQRPGQSPRRLIYLVSKLGSGVPDRFSGSGSGTDFTLKISRVEAEDVGVYYCWQGTHFPRTFGGGTKLEIK
Result: 12.2
